B1: LINE1-full (parent)
chain: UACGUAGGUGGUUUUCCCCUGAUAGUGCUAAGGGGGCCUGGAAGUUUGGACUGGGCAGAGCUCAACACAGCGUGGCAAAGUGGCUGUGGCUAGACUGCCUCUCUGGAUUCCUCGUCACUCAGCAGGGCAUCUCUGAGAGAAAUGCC

Variants of: B1
Assay: self-cleavage, relative activity (ratio to wild type); higher = more cleavage; in vitro, sequencing; the parent is a self-cleaving ribozyme
observation type: self-cleavage
One number for each entry.

Worked cases, self-cleavage given:
{"columns": ["variant label", "self-cleavage"],
 "data": [
  ["A42G G80C", 0.62],
  ["A64U G93U", 0.05],
  ["U96C C128U", 0.12],
  ["A22U G75A", 1],
  ["U73C A92G", 0.16]
]}

Report self-cleavage for each item below.
1. C103A A140G
2. A64G U109A

Reply:
1: 1.23; 2: 0.14

Report self-cleavage for each item below.
1. U91A U104A
2. U108C G137A
3. U20C U100A
4. C71U C90A

Reply:
1. 0.46
2. 0.89
3. 0.81
4. 0.04

Report self-cleavage for each item below.
1. U109G A141U
2. A129G C145G
3. A31U A138G

Reply:
[1.08, 1.65, 1.26]

Report self-cleavage for each item below.
1. A78U U130C
2. U13C A129U
3. G11A A94G
4. G33A A107G
5. U9C A124G
6. A22G G80U
7. U73C U119C
8. G33A U132C

Reply:
2.68
1.13
0.08
1.52
1.15
1
2.11
1.47

Report self-cleavage for each item below.
1. U46C A121G
2. U108C A117U

Reply:
1.64
1.83

Report self-cleavage for each item below.
1. U102C C113A
2. C19A U20C
3. A50U U96G

Reply:
1. 1.63
2. 1.04
3. 0.3

Report self-cleavage for each item below.
1. A2G U91C
2. U9C U85A
3. C84U U96C
4. A79G G114A

Reply:
1: 0.45; 2: 0.17; 3: 0.04; 4: 1.23

Report self-cleavage for each item below.
1. A69G U100A
2. G41C U134C
3. A31U G125U
4. A24U A57G
5. A6G A50U
6. U26A A141U

Reply:
1: 0.17; 2: 1.76; 3: 1.37; 4: 0.56; 5: 0.51; 6: 0.61
